- ASSAYED_SYSTEM: T1, human GITR-His (human, UniProt Q9Y5U5 26-161)
- T1 construct: Bought from Acro biosystems; also called GITR-His (Acro biosystems); antigen GITR-His
- T1 sequence: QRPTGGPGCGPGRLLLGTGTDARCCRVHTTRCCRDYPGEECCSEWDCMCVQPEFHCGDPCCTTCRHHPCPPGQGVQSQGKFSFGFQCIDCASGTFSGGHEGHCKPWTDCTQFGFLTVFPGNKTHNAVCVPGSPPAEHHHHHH
- RUN_DESCRIPTION: PE-ELISA, sample OD against reference OD
QUANTITY_MEASURED: Ratio (+/-)

BINDER: Nb-09 (VHH, Tested as crude extract from E. coli (osmotic shock)) VHH: QVQLQESGGGLVQPGGSLRLSCGASGFTFSSTAMWWFRQAPGKGLEWVSSITSDVSGTYYADSVQGRFTISRDNGKNTVYLQMNSLRSEDTALYYCATSCGFSGGTWSCKYRGQGTQVTVSS
OBSERVED_VALUE: 23.1
//
BINDER: Nb-16 (VHH, Tested as crude extract from E. coli (osmotic shock)) VHH: QVQLQESGGGSVQAGGSLRLSCAASGYTYNKYSWGWFRQAPGKEREGVAGIDSDGSTSYADSVKGRFTISKDNTKNTLYLQMNSLKPEDTAMYYCAASDWVSAIQALGVLAVRPYEYWGQGTQVTVSS
OBSERVED_VALUE: 20.7
//
BINDER: Nb-07 (VHH, Tested as crude extract from E. coli (osmotic shock)) VHH: QVQLQESGGGLVQAGGSLKLSCTVSGFAFGSSHMSWVRRAPGKGLEWVSTIHSGGGFGDYANSVQGRFTISRDVAKNTLYLQMNSLKPEDTAIYYCALATDWRKPPGQGTQVTVSS
OBSERVED_VALUE: 32.6
//
BINDER: Nb-21 (VHH, Tested as crude extract from E. coli (osmotic shock)) VHH: QVQLQESGGGSVQAGGSLRLSCRTSGYTNNLKSMAWFRQAPGKEREAVASIHNNGGPTYDYYAESVKGRFAISQDNAKNTLYLQMSSAKPEDTAVYYCAADNRFLGSGSWRLPSLYNYWGQGTQVTVSS
OBSERVED_VALUE: 7.55
//
BINDER: Nb-02 (VHH, Tested as crude extract from E. coli (osmotic shock)) VHH: QVQLQESGGGSVQAGGSLRLSCAASRDTYTRYFMGWFRQTPGKEGEGVAVLLPGGDYTFYADSVKGRFTITQDSAKNTVYLQMNSLKPEDTAMYYCAADVTVGSRWSQASNYNYWGQGTQVTVSS
OBSERVED_VALUE: 20.7
//
BINDER: Nb-20 (VHH, Tested as crude extract from E. coli (osmotic shock)) VHH: QVQLQESGGGSVQAGGSLRLSCASSGYSRTSRWMAWFRQAPGKEREGVAAIYTGGSSTLYANSMADRVTISQDNAKNTVYLRMNNLKPEDTAMYYCAADKLAGDFWLVDRWRAWGQGTQVTVSS
OBSERVED_VALUE: 12.2

(1) Nb-12 (VHH, Tested as crude extract from E. coli (osmotic shock)) VHH: QVQLQESGGGSVQAGGSLRLSCAASRDTYTRYFMGWFRQTPGKEPEGVAVLLPGGAYTFYADSVKGRFTITQDSAKNTVYLQMNSLKPEDTAMYYCAADVTVGSRWSQASNYNYWGQGTQVTVSS
(2) Nb-17 (VHH, Tested as crude extract from E. coli (osmotic shock)) VHH: QVQLQESGGGSAQAGGSLRLSCAASRYTSSSNAMGWFRQAPGKQREWVAGSDTGAGITCNAASVKGRFTISQDVAKNTVYLQMNSLKPEDTAVYYCAADWFRGAFCSGDADFRYWGQGTQVTVSS
(3) Nb-22 (VHH, Tested as crude extract from E. coli (osmotic shock)) VHH: QVQLQESGGGSVQAGGSLRLSCAASGYTFTTAYMGWFRQAPGKEREGVAAIDSDGRTEYADAVKGRFTISKDNAKNTLYLQMNSLKPEDTAMYYCAADKDDWLLLHGRSLFPSAFAYWGQGTQVTVSS
(4) Nb-08 (VHH, Tested as crude extract from E. coli (osmotic shock)) VHH: QVQLQESGGGSVQAGGSLRLSCAASGYTSSRKYIGWFRQAPGKQREWVAGIDTGAGGTCTIASVQGRFTISQDVAKNTLYLQIDSLKPEDTAVYYCAADWVRGGFCSGDADFRYWGQGTQVTVSS
Exercise: I would appreciate it if you could sort these 4 binders by Ratio (+/-), starting from the smallest number. Would you mind listing the labels in the order requested?
Solution: 1, 3, 2, 4
(1: 4.53, 3: 10, 2: 15.1, 4: 23)

(I) Nb-13 (VHH, Tested as crude extract from E. coli (osmotic shock)) VHH: QVQLQESGGGSVQAGGSLRLSCTASSNTGRMGWFRQAPGKEREGVTAVDNFGRTNYAKYVKGRFTISKDNAKNTLYLQMNSLKPEDTAMYYCAADPWGRGAALTPNEYIYWGQGTQVTVSS
(II) Nb-19 (VHH, Tested as crude extract from E. coli (osmotic shock)) VHH: QVQLQESGGGSVQAGGSLRLSCAASGFTYSNYCMAWFRQAPGKEREGVAAIDSDGSTSYADSVKGRFTISQDNAKNTLYLQMNSLKPEDTAMYYCAAGNKKPYQLCNTDSRRYYHWGQGTQVTVSS
Exercise: Please choose the item with the lower Ratio (+/-) value from this pair: I and II Selection: enter the item's label.
Solution: I
